RUN_DESCRIPTION: Apparent volume of distribution during terminal phase in ICR mouse at 10 mg/kg administered via oral gavage
Type: ADME, organism-based
MEASUREMENT_CONTEXT: in vivo, read-out: Vz/F
PARAMETER_MEASURED: Vd/F (L/kg)
Just the number please, in L/kg, no unit attached.

Task: Consider the molecule CCc1c(N(CC)C2CCOCC2)cc2oc(C3CCN(C(C)C)CC3)cc2c1C(=O)NCc1c(C)cc(C)[nH]c1=O and give its measured Vd/F.
Output: 21.9

---

TARGET_OR_TEST_SYSTEM: Histone-lysine N-methyltransferase EZH2 (Homo sapiens, UniProt Q15910)
Sequence (Q15910 whole entry): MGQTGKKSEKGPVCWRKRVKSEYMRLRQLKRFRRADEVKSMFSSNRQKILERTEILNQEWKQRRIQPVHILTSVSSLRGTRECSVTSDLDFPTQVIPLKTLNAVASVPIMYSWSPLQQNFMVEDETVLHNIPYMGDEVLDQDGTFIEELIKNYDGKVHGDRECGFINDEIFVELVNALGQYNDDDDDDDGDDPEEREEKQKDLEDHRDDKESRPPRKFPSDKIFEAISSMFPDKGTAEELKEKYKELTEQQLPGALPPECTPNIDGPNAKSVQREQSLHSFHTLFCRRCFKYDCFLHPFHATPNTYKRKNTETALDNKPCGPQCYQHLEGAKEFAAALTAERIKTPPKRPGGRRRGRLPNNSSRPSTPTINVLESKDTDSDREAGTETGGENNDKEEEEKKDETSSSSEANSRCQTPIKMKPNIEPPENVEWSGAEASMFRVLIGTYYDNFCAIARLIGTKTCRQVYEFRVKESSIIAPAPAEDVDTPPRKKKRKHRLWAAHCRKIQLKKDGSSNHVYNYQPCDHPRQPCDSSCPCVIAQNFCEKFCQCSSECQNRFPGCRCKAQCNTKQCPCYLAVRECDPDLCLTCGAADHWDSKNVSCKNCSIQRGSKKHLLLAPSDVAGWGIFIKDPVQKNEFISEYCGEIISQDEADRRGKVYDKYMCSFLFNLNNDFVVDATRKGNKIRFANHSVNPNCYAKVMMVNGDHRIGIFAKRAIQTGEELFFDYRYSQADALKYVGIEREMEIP
RUN_DESCRIPTION: Inhibition of EZH2 in human WSU-DLCL2 cells assessed as reduction in H3K27 trimethylation after 3 days by Western blot analysis
Type: cell-based
PARAMETER_MEASURED: pIC50
The meaning of pIC50 here: minus log10 of the concentration in molar units.

Task: Consider the compound CCc1c(N(CC)C2CCOCC2)cc2oc(C3CCN(C(C)C)CC3)cc2c1C(=O)NCc1c(C)cc(C)[nH]c1=O and give its measured pIC50.
Output: 7.26
